meta.source: ChEMBL document CHEMBL4004881

Assay: Inhibition of Pseudomonas aeruginosa PA0321 using Boc-Lys(trifluoroacetyl)-AMC as substrate preincubated for 30 mins followed by substrate addition measured after 60 mins by trypsin-based fluorescence assay
readout_type: Ki (µM)
Answers are plain numbers, in µM.

O=C(NO)C(F)(F)C(F)(F)C(F)(F)C(F)(F)C(F)(F)C(F)(F)C(=O)Nc1ccc2ccc3cccc4ccc1c2c34	4.1
O=C(NO)C(F)(F)C(F)(F)C(F)(F)C(F)(F)C(F)(F)C(F)(F)C(=O)Nc1ccc2ccccc2c1	1.2
O=C(NO)C(F)(F)C(F)(F)C(F)(F)C(F)(F)C(F)(F)C(F)(F)C(=O)Nc1ccccc1Cl	0.8
CCc1cccc(NC(=O)C(F)(F)C(F)(F)C(F)(F)C(F)(F)C(F)(F)C(F)(F)C(=O)NO)c1	2.1
Cc1ccccc1NC(=O)C(F)(F)C(F)(F)C(F)(F)C(F)(F)C(F)(F)C(F)(F)C(=O)NO	84
O=C(NO)C(F)(F)C(F)(F)C(F)(F)C(F)(F)C(F)(F)C(F)(F)C(=O)Nc1cccc2ccccc12	7

In the following, a different compound is considered.
Return the recorded Ki value; entry: "CC(=O)Nc1ccc(NC(=O)C(F)(F)C(F)(F)C(F)(F)C(F)(F)C(F)(F)C(F)(F)C(=O)NO)cc1"
3.6

====

Test: Inhibition of Bordetella HDAH using Boc-Lys(trifluoroacetyl)-AMC as substrate preincubated for 30 mins followed by substrate addition measured after 60 mins by trypsin-based fluorescence assay
readout_type: pKi
Give bare numbers, as −log10 of the molar value.

Solved entries (count: 4):
O=C(NO)C(F)(F)C(F)(F)C(F)(F)C(F)(F)C(F)(F)C(F)(F)C(=O)Nc1ccc(Cl)cc1	7.07
Cc1cccc(NC(=O)C(F)(F)C(F)(F)C(F)(F)C(F)(F)C(F)(F)C(F)(F)C(=O)NO)c1	6.35
O=C(NO)C(F)(F)C(F)(F)C(F)(F)C(F)(F)C(F)(F)C(F)(F)C(=O)Nc1ccc(F)cc1	6.48
Cc1ccc(NC(=O)C(F)(F)C(F)(F)C(F)(F)C(F)(F)C(F)(F)C(F)(F)C(=O)NO)cc1C	6.96

In the following, a different molecule is considered.
Return the recorded pKi value; entry: "O=C(NO)C(F)(F)C(F)(F)C(F)(F)C(F)(F)C(F)(F)C(F)(F)C(=O)Nc1ccccc1Cl"
6.62

====

Assay: Inhibition of Bordetella HDAH using Boc-Lys(trifluoroacetyl)-AMC as substrate preincubated for 30 mins followed by substrate addition measured after 60 mins by trypsin-based fluorescence assay
Please provide measured Ki for the entries that follow.
Numbers only, in nM.

Solved entries (count: 2):
O=C(NO)C(F)(F)C(F)(F)C(F)(F)C(F)(F)C(F)(F)C(F)(F)C(=O)Nc1cccc(Cl)c1	170
Cc1ccccc1NC(=O)C(F)(F)C(F)(F)C(F)(F)C(F)(F)C(F)(F)C(F)(F)C(=O)NO	620

In the following, a different compound is considered.
Return the recorded Ki value; entry: "COc1ccc(NC(=O)C(F)(F)C(F)(F)C(F)(F)C(F)(F)C(F)(F)C(F)(F)C(=O)NO)cc1"
180

====

Molecular target: Histone deacetylase 7 (Homo sapiens)
Sequence (Q8WUI4 whole entry): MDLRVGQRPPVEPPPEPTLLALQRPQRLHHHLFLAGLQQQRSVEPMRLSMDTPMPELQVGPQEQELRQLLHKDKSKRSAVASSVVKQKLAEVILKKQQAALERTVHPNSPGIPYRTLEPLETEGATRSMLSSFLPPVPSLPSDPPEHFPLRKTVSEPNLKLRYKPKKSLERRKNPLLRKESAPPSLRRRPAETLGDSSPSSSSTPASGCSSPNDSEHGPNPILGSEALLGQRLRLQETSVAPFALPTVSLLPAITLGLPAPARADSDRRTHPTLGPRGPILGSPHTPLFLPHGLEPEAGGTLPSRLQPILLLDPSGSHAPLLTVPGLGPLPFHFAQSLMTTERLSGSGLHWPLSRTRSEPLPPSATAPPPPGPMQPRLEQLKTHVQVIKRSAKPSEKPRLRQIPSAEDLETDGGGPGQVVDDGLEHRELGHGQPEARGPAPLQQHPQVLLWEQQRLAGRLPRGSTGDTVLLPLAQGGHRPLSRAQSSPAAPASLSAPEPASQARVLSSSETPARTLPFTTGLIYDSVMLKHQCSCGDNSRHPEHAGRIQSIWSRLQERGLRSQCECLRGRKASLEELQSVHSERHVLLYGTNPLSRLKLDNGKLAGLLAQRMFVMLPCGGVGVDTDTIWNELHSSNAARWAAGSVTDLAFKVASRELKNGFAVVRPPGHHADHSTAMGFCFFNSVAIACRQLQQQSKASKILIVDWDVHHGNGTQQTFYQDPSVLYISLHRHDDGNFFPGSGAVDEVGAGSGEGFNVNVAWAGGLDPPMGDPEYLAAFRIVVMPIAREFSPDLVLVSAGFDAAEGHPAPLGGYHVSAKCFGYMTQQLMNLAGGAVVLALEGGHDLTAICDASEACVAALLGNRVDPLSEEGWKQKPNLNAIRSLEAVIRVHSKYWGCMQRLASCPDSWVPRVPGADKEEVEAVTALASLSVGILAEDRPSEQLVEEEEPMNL
pKi: −log10 of the molar value.
Please provide measured pKi for the entries that follow.

Each of the following entries comes with a recorded value; kindly state pKi for each.
1. CN(C)c1ccc(NC(=O)C(F)(F)C(F)(F)C(F)(F)C(F)(F)C(F)(F)C(F)(F)C(=O)NO)cc1
2. Cc1ccc(NC(=O)C(F)(F)C(F)(F)C(F)(F)C(F)(F)C(F)(F)C(F)(F)C(=O)NO)cc1C

< 4.30
5.60

Return the recorded pKi value; entry: "O=C(NO)C(F)(F)C(F)(F)C(F)(F)C(F)(F)C(F)(F)C(F)(F)C(=O)Nc1ccccc1Cl"
< 4.30

====

Assay: Inhibition of Pseudomonas aeruginosa PA0321 using Boc-Lys(trifluoroacetyl)-AMC as substrate preincubated for 30 mins followed by substrate addition measured after 60 mins by trypsin-based fluorescence assay
Please provide measured Ki for the entries that follow.

O=C(NO)C(F)(F)C(F)(F)C(F)(F)C(F)(F)C(F)(F)C(F)(F)C(=O)Nc1ccc(-c2cnnn2-c2ccccc2)cc1	22 µM

Each of the following entries comes with a recorded value; kindly state Ki for each.
1. Cc1ccc(NC(=O)C(F)(F)C(F)(F)C(F)(F)C(F)(F)C(F)(F)C(F)(F)C(=O)NO)cc1
2. O=C(NO)C(F)(F)C(F)(F)C(F)(F)C(F)(F)C(F)(F)C(F)(F)C(=O)Nc1ccc(F)cc1
3. O=C(NO)C(F)(F)C(F)(F)C(F)(F)C(F)(F)C(F)(F)C(F)(F)C(=O)Nc1ccc(I)cc1
4. O=C(NO)C(F)(F)C(F)(F)C(F)(F)C(F)(F)C(F)(F)C(F)(F)C(=O)Nc1cccc(-c2ccccc2)c1

2.3 µM
0.49 µM
1.1 µM
1.5 µM

Each of the following entries comes with a recorded value; kindly state Ki for each.
1. N#Cc1ccc(NC(=O)C(F)(F)C(F)(F)C(F)(F)C(F)(F)C(F)(F)C(F)(F)C(=O)NO)cc1
2. CN(C)c1ccc(NC(=O)C(F)(F)C(F)(F)C(F)(F)C(F)(F)C(F)(F)C(F)(F)C(=O)NO)cc1
3. Cc1ccc(NC(=O)C(F)(F)C(F)(F)C(F)(F)C(F)(F)C(F)(F)C(F)(F)C(=O)NO)cc1C

1: 2.8 µM; 2: > 50 µM; 3: 1.6 µM

====

Please provide measured Ki for the entries that follow.
Biological target: Histone deacetylase 1 (Homo sapiens)
Sequence (Q13547 whole entry): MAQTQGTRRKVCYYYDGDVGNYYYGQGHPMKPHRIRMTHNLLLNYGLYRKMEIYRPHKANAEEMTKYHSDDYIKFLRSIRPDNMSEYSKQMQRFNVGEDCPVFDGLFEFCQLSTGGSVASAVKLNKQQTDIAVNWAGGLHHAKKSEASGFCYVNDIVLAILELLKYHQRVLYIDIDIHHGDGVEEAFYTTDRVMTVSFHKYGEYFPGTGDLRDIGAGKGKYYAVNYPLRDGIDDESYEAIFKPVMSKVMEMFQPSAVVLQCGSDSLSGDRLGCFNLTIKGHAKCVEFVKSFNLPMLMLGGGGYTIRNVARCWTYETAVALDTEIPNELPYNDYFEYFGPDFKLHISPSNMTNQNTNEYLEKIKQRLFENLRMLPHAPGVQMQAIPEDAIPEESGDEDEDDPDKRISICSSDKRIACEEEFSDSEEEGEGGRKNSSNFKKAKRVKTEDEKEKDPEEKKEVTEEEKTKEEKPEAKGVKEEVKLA

Solved entries (count: 3):
Cc1cccc(NC(=O)C(F)(F)C(F)(F)C(F)(F)C(F)(F)C(F)(F)C(F)(F)C(=O)NO)c1	> 50 µM
Cc1ccc(NC(=O)C(F)(F)C(F)(F)C(F)(F)C(F)(F)C(F)(F)C(F)(F)C(=O)NO)cc1C	7 µM
O=C(NO)C(F)(F)C(F)(F)C(F)(F)C(F)(F)C(F)(F)C(F)(F)C(=O)Nc1ccc(F)cc1	> 50 µM

In the following, a different molecule is considered.
Return the recorded Ki value; entry: "O=C(NO)C(F)(F)C(F)(F)C(F)(F)C(F)(F)C(F)(F)C(F)(F)C(=O)Nc1ccccc1Cl"
> 50 µM

====

Assay: Inhibition of Pseudomonas aeruginosa PA0321 using Boc-Lys(trifluoroacetyl)-AMC as substrate preincubated for 30 mins followed by substrate addition measured after 60 mins by trypsin-based fluorescence assay
Please provide measured Ki for the entries that follow.
Answers are plain numbers, in µM.

Solved entries (count: 5):
O=C(NO)C(F)(F)C(F)(F)C(F)(F)C(F)(F)C(F)(F)C(F)(F)C(=O)Nc1ccc2cc3ccccc3cc2c1	24
O=C(NO)C(F)(F)C(F)(F)C(F)(F)C(F)(F)C(F)(F)C(F)(F)C(=O)Nc1cccc(Cl)c1	0.073
O=C(NO)C(F)(F)C(F)(F)C(F)(F)C(F)(F)C(F)(F)C(F)(F)C(=O)Nc1nc(-c2ccccc2)cs1	8.5
O=C(NO)C(F)(F)C(F)(F)C(F)(F)C(F)(F)C(F)(F)C(F)(F)C(=O)Nc1ccccc1-c1ccccc1	12
O=C(NO)C(F)(F)C(F)(F)C(F)(F)C(F)(F)C(F)(F)C(F)(F)C(=O)Nc1ccc(Cl)cc1	2.1

Each of the following entries comes with a recorded value; kindly state Ki for each.
1. O=C(NO)C(F)(F)C(F)(F)C(F)(F)C(F)(F)C(F)(F)C(F)(F)C(=O)Nc1cc2ccccc2c2ccccc12
2. O=C(NO)C(F)(F)C(F)(F)C(F)(F)C(F)(F)C(F)(F)C(F)(F)C(=O)Nc1ccc(-c2ccccc2)cc1
3. Cc1cccc(NC(=O)C(F)(F)C(F)(F)C(F)(F)C(F)(F)C(F)(F)C(F)(F)C(=O)NO)c1

6
1.5
0.27

====

Assay: Inhibition of Pseudomonas aeruginosa PA1409 using Boc-Lys(trifluoroacetyl)-AMC as substrate preincubated for 30 mins followed by substrate addition measured after 60 mins by trypsin-based fluorescence assay
readout_type: pKi
One number for each entry, as −log10 of the molar value.

Solved entries (count: 2):
O=C(NO)C(F)(F)C(F)(F)C(F)(F)C(F)(F)C(F)(F)C(F)(F)C(=O)Nc1ccccc1-c1ccccc1	4.77
N#Cc1ccc(NC(=O)C(F)(F)C(F)(F)C(F)(F)C(F)(F)C(F)(F)C(F)(F)C(=O)NO)cc1	5.15

Each of the following entries comes with a recorded value; kindly state pKi for each.
1. O=C(NO)C(F)(F)C(F)(F)C(F)(F)C(F)(F)C(F)(F)C(F)(F)C(=O)Nc1cccc(-c2ccccc2)c1
2. O=C(NO)C(F)(F)C(F)(F)C(F)(F)C(F)(F)C(F)(F)C(F)(F)C(=O)Nc1ccc(-c2cnnn2-c2ccccc2)cc1
3. Cc1ccc(NC(=O)C(F)(F)C(F)(F)C(F)(F)C(F)(F)C(F)(F)C(F)(F)C(=O)NO)cc1C
4. O=C(NO)C(F)(F)C(F)(F)C(F)(F)C(F)(F)C(F)(F)C(F)(F)C(=O)Nc1ccccc1
5. CCc1cccc(NC(=O)C(F)(F)C(F)(F)C(F)(F)C(F)(F)C(F)(F)C(F)(F)C(=O)NO)c1
6. O=C(NO)C(F)(F)C(F)(F)C(F)(F)C(F)(F)C(F)(F)C(F)(F)C(=O)Nc1cc2ccccc2c2ccccc12
7. O=C(NO)C(F)(F)C(F)(F)C(F)(F)C(F)(F)C(F)(F)C(F)(F)C(=O)Nc1cccc2cc3ccccc3cc12
8. Cc1ccc(NC(=O)C(F)(F)C(F)(F)C(F)(F)C(F)(F)C(F)(F)C(F)(F)C(=O)NO)cc1

1. 5.36
2. 4.82
3. 5.24
4. 5.59
5. 5.17
6. 4.96
7. 4.96
8. 5.21

Each of the following entries comes with a recorded value; kindly state pKi for each.
1. O=C(NO)C(F)(F)C(F)(F)C(F)(F)C(F)(F)C(F)(F)C(F)(F)C(=O)Nc1cccc2ccccc12
2. Cc1cccc(NC(=O)C(F)(F)C(F)(F)C(F)(F)C(F)(F)C(F)(F)C(F)(F)C(=O)NO)c1

4.68
4.96
